The reported numbers originate from the supplement of paper PMC6757056.

B1: library; a variant is named by its letters at N, in order (parent)
chain: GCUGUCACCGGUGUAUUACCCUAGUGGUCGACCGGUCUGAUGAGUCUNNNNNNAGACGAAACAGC

variants of: B1; assay: normalized RNA/DNA level without ligand (relative to sTRSVctl = 100) (log10 (% of sTRSVctl)); ligand: hypoxanthine (xanthine aptamer); higher = less ribozyme self-cleavage, higher mRNA level; details: HEK293T, reporter: mCherry (pCS4076), ligand present: no
quantity measured: normalized RNA/DNA level without ligand (log10)
Answers are plain numbers.

>>> df
   mutation_id  quantitative_result
0       GGUGCU                 1.98

Quick batch: normalized RNA/DNA level without ligand (log10) for everything below.
1. UCUACA
2. CCUAAA
3. GAAUAA
4. UCUUGC
5. CUUACA
6. GGAAUU

Result:
1. 1.85
2. 1.84
3. 1.78
4. 1.9
5. 1.83
6. 1.89

Quick batch: normalized RNA/DNA level without ligand (log10) for everything below.
1. ACAGUA
2. AUCUAU
3. CCCUUA
4. UUGCGG

Result:
1. 1.76
2. 1.83
3. 1.9
4. 1.91

Quick batch: normalized RNA/DNA level without ligand (log10) for everything below.
1. UCCCCG
2. UAGCAA
3. CUCUUU
4. GAGUGU
5. CAUGAA
6. CUUUAA
7. GCUAAU

Result:
1.5
1.74
1.91
1.6
1.68
1.78
1.79

Quick batch: normalized RNA/DNA level without ligand (log10) for everything below.
1. GCUUCA
2. GCGCCA
3. CUUGGC

Result:
1: 1.9; 2: 1.71; 3: 1.9

Quick batch: normalized RNA/DNA level without ligand (log10) for everything below.
1. CACCUA
2. AGCUUA
3. AGGCUA
4. GCAGUG
5. GUCGCC
6. CGAUAC

Result:
[1.76, 1.85, 1.81, 1.4, 1.91, 1.69]

Quick batch: normalized RNA/DNA level without ligand (log10) for everything below.
1. GCGGUA
2. AUAAAC
3. AGCACG
4. UUACAA

Result:
1.68
1.81
1.44
1.8

Quick batch: normalized RNA/DNA level without ligand (log10) for everything below.
1. UCCGCG
2. AGAAUU
3. UAUGAU
4. CUGUCA
5. UUCGAA
6. UGUUCU

Result:
1: 1.51; 2: 1.86; 3: 1.75; 4: 1.86; 5: 1.7; 6: 1.97

Quick batch: normalized RNA/DNA level without ligand (log10) for everything below.
1. CGUGGU
2. UGCACA
3. UUAAAC
4. GGGCUC
5. CGACAA

Result:
1: 1.86; 2: 1.84; 3: 1.79; 4: 2; 5: 1.64
